# study_system: human recombinant GABAAR containing α5β3γ2 subunits (benzodiazepine site) (Homo sapiens, UniProt P18507+P31644)
# Construct: expressed in transfected cells; host or cells: mouse L(tk−) cells, dexamethasone-inducible vector pMSGneo
# experiment_description: In vitro radioligand binding assay (α5-GABAAR Ki)
# condition_details: inhibition of [3H]Ro15-1788 binding, membranes of L(tk−) cells expressing human α5β3γ2; read-out: α5-GABAAR Ki
Recorded Ki, one value per entry.
Show the value, then the unit it is measured in.

Below: 3 molecules and their reported Ki.
{"columns": ["smi", "Ki"],
 "data": [
  ["CNCc1ccc(-c2ccc(NC(=O)c3c(-c4ccccc4)noc3C)c(OC)n2)cn1", "1.1 nM"],
  ["COc1nc(-c2cnc3cnn(C)c3c2)ccc1NC(=O)c1c(-c2ccccc2)noc1C", "3 nM"],
  ["COc1nc(C)c(-c2ccc(NC(=O)c3c(-c4ccccc4)noc3C)c(OC)n2)c(C)n1", "22.9 nM"]
]}

Turning now to a further record.
Exam item: Which Ki is listed for COC(=O)c1ncc(-c2ccc(NC(=O)c3c(-c4ccccc4)noc3C)c(OC)n2)cn1 ?
Marked response: 0.7 nM

###

Recorded pKi, one value per entry.
# study_system: human recombinant GABAAR containing α5β3γ2 subunits (benzodiazepine site) (Homo sapiens, UniProt P18507+P31644)
# Construct: expressed in transfected cells; host or cells: mouse L(tk−) cells, dexamethasone-inducible vector pMSGneo
# experiment_description: In vitro radioligand binding assay (α5-GABAAR Ki)
# condition_details: inhibition of [3H]Ro15-1788 binding, membranes of L(tk−) cells expressing human α5β3γ2; read-out: α5-GABAAR Ki
Structures can show the parent of a compound that is named as a salt.
In simple prose, pKi is minus the logarithm base ten of a concentration in moles per litre.

{"columns": ["compound", "pKi"],
 "data": [
  ["COc1nc(-c2cnc(CN)nc2)ccc1NC(=O)c1c(-c2ccccc2)nnn1C.Cl [Example 180, hydrochloride]", 8.41],
  ["COc1nc(-c2nnc3n2CCNC3)ccc1NC(=O)c1c(-c2ccccc2)noc1C [Example 196, dihydrochloride]", 7.63],
  ["COc1nc(-c2ccc3c(N)n[nH]c3c2)ccc1NC(=O)c1c(-c2ccccc2)noc1C", 7.57]
]}

Turning now to a further record.
Exam item: Which pKi is listed for COc1nc(-c2cncnc2)ccc1NC(=O)c1c(-c2ccccc2)noc1C ?
Marked response: 8.70

###

# study_system: human α5β3γ2 GABAARs in mouse L(tk−) cells (Homo sapiens, UniProt P18507+P31644)
# Construct: expressed in transfected cells; host or cells: mouse L(tk−) cells, dexamethasone-inducible vector pMSGneo
# Sequence (P31644 32-462): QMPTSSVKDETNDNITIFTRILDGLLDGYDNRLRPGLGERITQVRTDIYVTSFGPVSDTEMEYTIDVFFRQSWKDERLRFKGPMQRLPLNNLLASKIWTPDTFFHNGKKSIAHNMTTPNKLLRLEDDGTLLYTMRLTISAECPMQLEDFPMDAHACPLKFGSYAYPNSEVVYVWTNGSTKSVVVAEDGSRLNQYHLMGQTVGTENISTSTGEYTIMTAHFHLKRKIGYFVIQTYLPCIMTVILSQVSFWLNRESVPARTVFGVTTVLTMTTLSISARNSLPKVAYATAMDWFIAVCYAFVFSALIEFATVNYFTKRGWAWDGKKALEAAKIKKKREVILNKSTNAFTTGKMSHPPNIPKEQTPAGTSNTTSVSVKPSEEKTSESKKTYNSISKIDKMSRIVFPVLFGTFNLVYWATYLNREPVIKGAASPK
# Sequence (P28472 26-473 partner): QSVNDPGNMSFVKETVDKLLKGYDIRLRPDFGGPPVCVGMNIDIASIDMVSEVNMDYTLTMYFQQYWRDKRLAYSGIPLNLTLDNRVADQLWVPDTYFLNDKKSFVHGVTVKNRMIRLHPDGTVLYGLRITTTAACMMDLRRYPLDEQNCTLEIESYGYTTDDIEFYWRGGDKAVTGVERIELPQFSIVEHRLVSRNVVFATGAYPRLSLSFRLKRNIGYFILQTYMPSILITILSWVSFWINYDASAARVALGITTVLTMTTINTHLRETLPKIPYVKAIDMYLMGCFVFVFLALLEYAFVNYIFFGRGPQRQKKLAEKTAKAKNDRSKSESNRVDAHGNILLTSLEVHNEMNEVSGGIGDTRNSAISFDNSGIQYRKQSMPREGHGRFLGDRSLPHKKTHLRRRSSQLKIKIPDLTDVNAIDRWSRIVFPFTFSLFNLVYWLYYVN
# Sequence (P18507 40-475): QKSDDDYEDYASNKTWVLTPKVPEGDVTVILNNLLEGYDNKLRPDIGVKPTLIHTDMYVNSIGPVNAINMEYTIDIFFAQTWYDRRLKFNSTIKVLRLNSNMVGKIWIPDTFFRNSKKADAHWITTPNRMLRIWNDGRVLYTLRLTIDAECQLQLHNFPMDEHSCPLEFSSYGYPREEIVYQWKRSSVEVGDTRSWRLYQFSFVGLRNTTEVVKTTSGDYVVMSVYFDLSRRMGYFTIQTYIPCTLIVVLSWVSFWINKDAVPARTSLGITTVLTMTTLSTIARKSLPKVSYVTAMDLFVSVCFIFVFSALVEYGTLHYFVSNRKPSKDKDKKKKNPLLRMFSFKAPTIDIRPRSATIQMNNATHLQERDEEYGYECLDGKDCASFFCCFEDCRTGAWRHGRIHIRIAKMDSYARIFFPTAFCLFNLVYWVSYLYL
# experiment_description: In vitro electrophysiological recording assay (α5-GABAAR relative efficacy), QPatch
# Assay type: cell-based
# condition_details: Conc 1 μM; GABA EC10-20
Criterion: α5-GABAAR Relative Efficacy (to DMCM), Qpatch strictly under -0.7. Met: satisfied. Not met: not satisfied.

Examples with answers:
{"columns": ["compound", "cat"],
 "data": [
  ["COc1nc(-n2cnc(C(F)(F)F)c2)ccc1NC(=O)c1c(-c2ccccc2)noc1C [Example 140]", "satisfied"],
  ["COc1nc(-c2cnc(NCCN(C)C)nc2)ccc1NC(=O)c1c(-c2ccccc2)noc1C [Example 167]", "satisfied"],
  ["COc1cc(-c2cncnc2)ccc1NC(=O)c1c(-c2ccccc2)noc1C [Example 13]", "satisfied"],
  ["COc1nc(-c2ccn3nc(N)nc3c2)ccc1NC(=O)c1c(C)nnn1-c1ccccc1 [Example 159]", "satisfied"],
  ["COc1nc(-c2cnc(N)cn2)cnc1NC(=O)c1c(-c2ccccc2)noc1C [Example 150]", "satisfied"]
]}

Exam item: Does COc1cc(-c2cnn(C)c2)cnc1NC(=O)c1c(-c2ccccc2)noc1C [Example 15] have α5-GABAAR Relative Efficacy (to DMCM), Qpatch strictly under -0.7?
Marked response: not satisfied

Exam item: Does COc1nc(-c2ccn3nc(N(C)C)nc3c2)ccc1NC(=O)c1c(-c2ccccc2)noc1C.Cl [Example 131] have α5-GABAAR Relative Efficacy (to DMCM), Qpatch strictly under -0.7?
Marked response: not satisfied

Exam item: Does COc1nc(-c2cnc3n2CCN(C)C3)ccc1NC(=O)c1c(-c2ccccc2)noc1C [Example 137] have α5-GABAAR Relative Efficacy (to DMCM), Qpatch strictly under -0.7?
Marked response: satisfied

Exam item: Does COc1nc(-c2ccc(=O)n(C)c2)ccc1NC(=O)c1c(-c2ccccc2)noc1C [Example 28] have α5-GABAAR Relative Efficacy (to DMCM), Qpatch strictly under -0.7?
Marked response: not satisfied

Exam item: Does COc1nc(-c2ncnn2C)ccc1NC(=O)c1c(-c2ccccc2)noc1C [Example 52] have α5-GABAAR Relative Efficacy (to DMCM), Qpatch strictly under -0.7?
Marked response: not satisfied
